target: KCNQ2/3 channels (Homo sapiens, UniProt O43525+O43526); construct: expressed in transfected cells; assay: Fluorescence assay using a voltage sensitive dye (fluorimetry); format: cell-based; details: CHO-K1 cells expressing KCNQ2/3; IC50 where % efficacy is negative; read-out: Fluorimetry EC50/IC50
Sequence (O43526 whole entry): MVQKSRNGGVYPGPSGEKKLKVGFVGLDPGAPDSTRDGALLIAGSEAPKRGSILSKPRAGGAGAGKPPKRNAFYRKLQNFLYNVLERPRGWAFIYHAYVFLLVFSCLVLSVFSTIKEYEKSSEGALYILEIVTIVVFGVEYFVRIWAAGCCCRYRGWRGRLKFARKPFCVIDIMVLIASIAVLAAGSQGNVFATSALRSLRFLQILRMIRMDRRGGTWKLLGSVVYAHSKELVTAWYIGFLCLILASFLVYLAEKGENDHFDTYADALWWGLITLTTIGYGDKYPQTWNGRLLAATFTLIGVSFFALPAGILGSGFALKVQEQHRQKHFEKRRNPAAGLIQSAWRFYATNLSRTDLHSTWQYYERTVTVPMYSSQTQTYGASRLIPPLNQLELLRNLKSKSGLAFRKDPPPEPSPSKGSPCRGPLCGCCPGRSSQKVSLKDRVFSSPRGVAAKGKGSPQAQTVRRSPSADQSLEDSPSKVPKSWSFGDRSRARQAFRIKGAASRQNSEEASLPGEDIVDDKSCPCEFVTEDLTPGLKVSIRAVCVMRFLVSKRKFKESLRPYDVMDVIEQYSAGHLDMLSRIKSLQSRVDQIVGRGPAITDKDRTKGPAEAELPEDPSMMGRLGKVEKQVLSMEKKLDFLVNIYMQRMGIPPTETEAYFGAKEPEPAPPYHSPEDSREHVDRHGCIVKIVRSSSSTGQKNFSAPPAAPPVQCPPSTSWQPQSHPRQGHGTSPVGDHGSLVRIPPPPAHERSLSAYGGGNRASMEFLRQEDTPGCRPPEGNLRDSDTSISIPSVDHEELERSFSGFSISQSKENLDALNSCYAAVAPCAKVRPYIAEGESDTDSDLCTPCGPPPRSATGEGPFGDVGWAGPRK
Sequence (O43525 whole entry): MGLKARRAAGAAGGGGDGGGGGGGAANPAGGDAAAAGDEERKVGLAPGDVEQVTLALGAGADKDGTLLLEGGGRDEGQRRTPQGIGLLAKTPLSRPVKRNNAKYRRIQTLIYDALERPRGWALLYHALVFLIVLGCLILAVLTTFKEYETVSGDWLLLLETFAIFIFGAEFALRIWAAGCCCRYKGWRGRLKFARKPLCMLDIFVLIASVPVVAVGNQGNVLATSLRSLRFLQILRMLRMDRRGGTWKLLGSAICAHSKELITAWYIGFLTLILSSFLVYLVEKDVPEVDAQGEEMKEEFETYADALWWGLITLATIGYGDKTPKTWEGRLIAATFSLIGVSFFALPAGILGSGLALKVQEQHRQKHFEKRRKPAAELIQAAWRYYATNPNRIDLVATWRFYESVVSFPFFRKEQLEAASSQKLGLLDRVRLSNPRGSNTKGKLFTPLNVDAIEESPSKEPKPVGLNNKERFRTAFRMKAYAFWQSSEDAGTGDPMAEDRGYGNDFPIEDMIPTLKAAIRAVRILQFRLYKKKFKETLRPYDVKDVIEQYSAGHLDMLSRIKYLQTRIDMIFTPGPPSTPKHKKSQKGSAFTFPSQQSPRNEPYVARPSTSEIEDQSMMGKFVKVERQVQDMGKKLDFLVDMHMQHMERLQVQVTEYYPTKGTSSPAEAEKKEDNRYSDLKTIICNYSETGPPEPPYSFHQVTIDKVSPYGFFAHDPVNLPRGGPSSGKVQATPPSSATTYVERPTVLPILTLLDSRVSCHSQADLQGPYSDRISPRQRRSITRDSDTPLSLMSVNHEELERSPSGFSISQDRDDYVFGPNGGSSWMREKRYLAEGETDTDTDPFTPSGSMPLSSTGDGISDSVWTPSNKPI
pEC50: −log10 of the molar value.
Parameter: pEC50. Scope: all listed entries.

| chemical string | pEC50 |
| --- | --- |
| CCSc1nc(N2CCOCC2)cc(C)c1C(=O)NCc1ccc(C(F)(F)F)c(F)c1 | 7.42 |
| COCCOc1nc(N2CCOCC2)cc(C)c1C(=O)NCc1cccc(F)c1 | 5.91 |
| CCCc1nc(N2CCOC[C@H]2C)cc(C)c1C(=O)NCc1ccc(F)cc1 | 6.85 |
| CCSc1nc(N2CCOC[C@@H]2CO)cc(C)c1C(=O)NCc1cccc(F)c1 | 5.38 |
| CCSc1nc(N2CCOCC2)cc(C)c1C(=O)NCCCc1ccc(F)cc1 | 6.50 |
| CCSc1nc(N2CCCc3ccccc32)cc(C)c1C(=O)NCc1cccc(F)c1 | 6.46 |
| CCOc1nc(N2CCOCC2)cc(C)c1C(=O)NCCCC(C)(C)C | 6.86 |
| Cc1cc(N2CCOC[C@H]2C)nc(C(C)C)c1C(=O)NCc1ccc(F)cc1 | 7.62 |
| Cc1cc(N2CCOC[C@H]2C)nc(C(C)C)c1C(=O)NCc1ccc(Cl)cc1 | 7.55 |
